measured-target: T1, Claudin 18.2 (CLDN18.2), expressed on CHOS-CLDN 18.2 / HEK293-CLDN 18.2 / HCC827-CLDN 18.2 cells (human, UniProt P56856-2 1-261)
T1 construct: whole, on cells; The species is not repeated for the CHOS-CLDN 18.2 cells; also called claudin-18A2
assay-procedure: FACS, CHOS-CLDN18.2 cells, 0 µg/ml (background)
Consider the following binders and their measured FACS reading readings.

Worked cases, FACS reading given:
[
  {
    "binder": "QP024025 (antibody, human IgG1, V domains shown, also called IMAB362; 175D10(IMAB362)) VH: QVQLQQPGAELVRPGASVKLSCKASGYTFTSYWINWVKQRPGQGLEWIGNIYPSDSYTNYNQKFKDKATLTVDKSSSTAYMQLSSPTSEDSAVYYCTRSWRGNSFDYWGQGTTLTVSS VL: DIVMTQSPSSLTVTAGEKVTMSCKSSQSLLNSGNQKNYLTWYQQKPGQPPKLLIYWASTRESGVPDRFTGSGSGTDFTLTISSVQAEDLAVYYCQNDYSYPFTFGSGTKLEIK",
    "FACS reading": 732
  },
  {
    "binder": "QP14651460 (antibody, human IgG1, kappa, V domains shown, Humanized from QP207208) VH: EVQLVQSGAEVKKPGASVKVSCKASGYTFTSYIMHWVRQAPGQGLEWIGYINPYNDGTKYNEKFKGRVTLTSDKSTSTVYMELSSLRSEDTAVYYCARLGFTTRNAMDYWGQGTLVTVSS VL: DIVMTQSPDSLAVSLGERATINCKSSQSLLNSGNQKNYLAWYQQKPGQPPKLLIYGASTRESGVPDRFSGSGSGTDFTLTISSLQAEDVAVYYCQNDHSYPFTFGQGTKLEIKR",
    "FACS reading": 732
  },
  {
    "binder": "QP14641462 (antibody, human IgG1, kappa, V domains shown, Humanized from QP207208) VH: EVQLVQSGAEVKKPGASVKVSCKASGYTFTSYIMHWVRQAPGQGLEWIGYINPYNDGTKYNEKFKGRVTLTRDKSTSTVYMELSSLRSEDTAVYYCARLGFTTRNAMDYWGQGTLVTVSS VL: DIVMTQSPDSLAVSLGERATINCKSSQSLLNSGNQKNYLAWYQQKPGQPPKLLIYGASTRESGVPDRFTGSGSGTDFTLTISSVQAEDVAVYYCQNDHSYPFTFGQGTKLEIKR",
    "FACS reading": 732
  },
  {
    "binder": "QP14641461 (antibody, human IgG1, kappa, V domains shown, Humanized from QP207208) VH: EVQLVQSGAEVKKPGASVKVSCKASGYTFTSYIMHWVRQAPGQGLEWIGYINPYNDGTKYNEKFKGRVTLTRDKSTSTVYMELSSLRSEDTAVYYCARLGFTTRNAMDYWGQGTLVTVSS VL: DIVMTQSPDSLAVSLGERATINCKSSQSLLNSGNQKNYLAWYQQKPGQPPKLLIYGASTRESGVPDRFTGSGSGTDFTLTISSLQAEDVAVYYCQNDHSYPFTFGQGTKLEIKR",
    "FACS reading": 732
  }
]

Turning to the following binder.
Fill in the blank: the reported FACS reading of QP14641460 (antibody, human IgG1, kappa, V domains shown, Humanized from QP207208) VH: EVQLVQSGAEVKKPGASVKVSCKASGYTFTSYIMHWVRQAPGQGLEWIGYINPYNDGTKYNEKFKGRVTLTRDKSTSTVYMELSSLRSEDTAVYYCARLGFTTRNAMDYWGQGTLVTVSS VL: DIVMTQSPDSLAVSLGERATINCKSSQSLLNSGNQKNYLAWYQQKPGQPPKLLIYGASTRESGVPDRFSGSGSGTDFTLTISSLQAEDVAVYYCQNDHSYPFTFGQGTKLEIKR is ____.
732
